# Method: NCI Yeast Anticancer Drug Screen. Data for the cln2 rad14 strain (AID 165)
# Condition Description: S. cerevisiae cln2 rad14 strain, at 50.0 µM, stronger effect = higher value
Compounds without any hit were thinned out: in the full panel of roughly 79,000, 15% have a hit.
Please enter MET where growth inhibition is greater than or equal to -10%, and NOT MET where it is lower.

Example entries begin here.
>>> category_label("S=C1SCCCN1c1ccccc1")
"NOT MET"
>>> category_label("CC(C(=O)O)N(C)C(=O)OCc1ccccc1 (configuration not stated)")
"NOT MET"
>>> category_label("NC1=NCC(c2ccccn2)C1c1ccc(F)cc1 (configuration not stated)")
"MET"

Query: Record COc1ccc(Cl)cc1NC(=O)Oc1ccccc1C(N)=O ; criterion: growth inhibition no lower than -10%. Met?
Response: NOT MET

Query: Record Cc1cc(Sc2ccccc2)nc2ccccc12 ; criterion: growth inhibition no lower than -10%. Met?
Response: MET

Query: Record Cc1ccc(C(O)/C(=N/N)c2nc3ccc([N+](=O)[O-])cc3[nH]c2=O)cc1 (configuration not stated) ; criterion: growth inhibition no lower than -10%. Met?
Response: NOT MET

Query: Record C=Cc1ccccc1NC(C(=O)O)c1ccccc1 (configuration not stated) ; criterion: growth inhibition no lower than -10%. Met?
Response: MET
